- system.name: Tryptophan 2,3-dioxygenase (Homo sapiens, UniProt P48775)
- Sequence (P48775 whole entry): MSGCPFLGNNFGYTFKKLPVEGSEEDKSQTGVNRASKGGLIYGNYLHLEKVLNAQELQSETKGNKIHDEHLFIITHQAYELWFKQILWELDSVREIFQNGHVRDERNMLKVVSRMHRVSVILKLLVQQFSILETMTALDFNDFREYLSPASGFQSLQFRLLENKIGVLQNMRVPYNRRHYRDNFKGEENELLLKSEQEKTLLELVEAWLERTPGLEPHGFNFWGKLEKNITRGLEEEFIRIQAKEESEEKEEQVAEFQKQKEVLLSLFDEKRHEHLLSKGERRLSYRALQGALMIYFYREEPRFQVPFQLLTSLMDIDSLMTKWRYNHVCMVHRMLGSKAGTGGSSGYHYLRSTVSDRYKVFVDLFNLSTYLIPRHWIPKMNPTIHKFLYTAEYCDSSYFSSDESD
- procedure.text: Inhibition of recombinant human TDO assessed as reduction in kynurenine formation using L-tryptophan as substrate incubated for 45 mins by microplate reader assay
IC50 reference
measurement.type: IC50

                                chem_smiles  measurement_type  value_observed
0  CC(=O)Nc1cc(Nc2ccc(F)cc2)c2cc(C(=O)O)[nH]c2c1              IC50         7.69 µM
1  O=C(O)c1cc2c(Nc3ccc(F)c4[nH]c(C(=O)O)cc34)ccc(F)c2[nH]1              IC50         3.48 µM
2  CC(=O)Nc1cc(Nc2cccc3[nH]ncc23)c2cc(C(=O)O)[nH]c2c1              IC50         6.78 µM
3  CC(=O)Nc1cc(Nc2ccc(F)c(OC(F)(F)F)c2)c2cc(C(=O)O)[nH]c2c1              IC50         3.62 µM
4  CC(=O)Nc1cc(Nc2ccc(F)nc2)c2cc(C(=O)O)[nH]c2c1              IC50         46.1 µM
